- tested system: OpSTR (strictosidine synthase from Ophiorrhiza pumila) (Ophiorrhiza pumila, UniProt Q94LW9)
Here, each record is paired with measured IC50 data.
measured property: IC50 (µM)

> print(dat)
                                   compound  value.measured
1  CC1NCCc2c1[nH]c1ccccc21 (racemic) [rac-3d]            3400
2     C[C@@H]1NCCc2c1[nH]c1ccccc21 [(S)-3d]            1600
